target: SmosOBP12 (Sitodiplosis mosellana, UniProt A0A346RTY7); test: Fluorescence competitive binding assay with 1-NPN probe, recombinant SmosOBP12; conditions: calculated from IC50, Ki = [IC50]/(1 + [1-NPN]/K1-NPN); read-out: SmosOBP12 Ki
Sequence (A0A346RTY7 entry or part of it): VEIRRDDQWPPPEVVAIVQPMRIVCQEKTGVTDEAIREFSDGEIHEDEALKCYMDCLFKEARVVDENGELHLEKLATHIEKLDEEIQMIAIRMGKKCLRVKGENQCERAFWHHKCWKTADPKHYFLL
metric: pKi
Note on units: pKi is unitless, being -log10 of a concentration expressed in mol/L.

IN: Record lookup: for SmosOBP12 (Sitodiplosis mosellana, UniProt A0A346RTY7), what pKi belongs to CC(C)(CO)[C@@H](O)C(=O)NCCCO [D-Panthenol] ?
OUT: 5.39

IN: One more molecule: C=CC(C)=CCC=C(C)C [Ocimene]
OUT: 5.08

IN: Next up: CCCCC(CC)CO (stereo not drawn) [2-Ethyl hexanol]
OUT: 5.20

IN: Also, CC/C=C\CCOC(C)=O [(Z)-3-Hexenyl acetate] please.
OUT: 5.14

IN: Consider next the molecule CCCCCCCCCCCO [Undecanol] in the same way.
OUT: 5.36

IN: Another: CCCC(O)CC (stereo not drawn) [3-Hexanol]
OUT: 5.48

IN: Lookup CCCCC(=O)CCCC [5-Nonanone]
OUT: 5.17
